- Test system: MSLN-positive cell lines
- measurement.protocol: In vitro cytotoxicity (IC50, Crystal Violet) on MSLN-positive cell lines (Example 11)
- study.conditions: read-out: In vitro cell based potency, IC50; NCI-H1568/MSLN cells (MSLN MFI 4474.00)
test.readout: IC50 (nM)
A number alone suffices; assume nM.

# compound COc1cc2cc(c1Cl)N(C)C(=O)C[C@H](OC(=O)[C@H](C)N(C)C(=O)CCC(C)(C)S)[C@]1(C)O[C@H]1[C@H](C)[C@@H]1C[C@@](O)(NC(=O)O1)[C@H](OC)/C=C/C=C(\C)C2 ; its IC50 = 0.57

====

- Tested on: MSLN-positive cell lines
- measurement.protocol: In vitro cytotoxicity (IC50, Crystal Violet) on MSLN-positive cell lines (Example 11)
- study.conditions: read-out: In vitro cell based potency, IC50; OVCAR3-A1 cells (MSLN MFI 220.0)
test.readout: IC50 (nM)
Reply with just the number (in nM).

For COc1cc2cc(c1Cl)N(C)C(=O)C[C@H](OC(=O)[C@H](C)N(C)C(=O)CCC(C)(C)S)[C@]1(C)O[C@H]1[C@H](C)[C@@H]1C[C@@](O)(NC(=O)O1)[C@H](OC)/C=C/C=C(\C)C2 the molecule record lists IC50 as 0.1
